In this section we review reported pIC50 values for a set of compounds.
Tested on: 192522-019-R-J2-PDC complex tumor spheroid viability;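 also: spheroids exposed to drugs for seven days before reading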
Assay: Anticancer human tumor 192522-019-R-J2-PDC patient-derived colon adenocarcinoma cell line growth inhibition [POLQ]
Conditions: curve of compound
Procedure: Multicellular complex tumor spheroid response to Polymerase (POL) inhibitors (novobiocin, ART-558, RP6685) in combination with a variety of drugs and investigational agents in selected tumor cell lines The POL inhibitors (novobiocin, ART-558, and RP6685) were evaluated both individually and in combination with standard of care and investigational anticancer small molecules within a complex spheroid model of solid tumors. . […]
pIC50: −log10 of the molar value.

Reference set, count: 3
{"Compound": "CC[C@@]1(O)C(=O)OCc2c1cc1n(c2=O)Cc2cc3c(CN(C)C)c(O)ccc3nc2-1", "Tested On": "192522-019-R-J2-PDC complex tumor spheroid viability", "pIC50": "< 7.00"}
{"Compound": "CNCc1ccc(-c2[nH]c3cc(F)cc4c3c2CCNC4=O)cc1", "Tested On": "192522-019-R-J2-PDC complex tumor spheroid viability", "pIC50": "< 5.00"}
{"Compound": "Nc1ccn(C2OC(CO)C(O)C2(F)F)c(=O)n1 (stereo not drawn)", "Tested On": "192522-019-R-J2-PDC complex tumor spheroid viability", "pIC50": "< 5.00"}

GET /value?item= O=C(Nc1ccc(O)c(NS(=O)(=O)c2ccc(F)cc2)c1)c1ccc(-c2ccccc2)cc1 &field=pIC50 returns < 5.00

Value of pIC50 reported for the compound O=c1[nH]cc(F)c(=O)[nH]1 is < 5.00

Kindly note the recorded pIC50 for COc1cccc2c1C(=O)c1c(O)c3c(c(O)c1C2=O)CC(O)(C(=O)CO)CC3OC1CC(N)C(O)C(C)O1 (stereo not drawn) , which is < 5.00

The reported value for Cn1ncnc1[C@H]1c2n[nH]c(=O)c3cc(F)cc(c23)N[C@@H]1c1ccc(F)cc1 in terms of pIC50 is < 7.00

According to the records, this compound O=C(c1cc(Cc2n[nH]c(=O)c3ccccc23)ccc1F)N1CCN(C(=O)C2CC2)CC1 displays pIC50 of < 5.00

Measured pIC50 of CCc1cc2c(N3CCc4c(cc(Cn5ccnc5)cc4-c4cn(C)nc4C(F)(F)F)C3=O)cc(C)nc2c(OC)n1 : < 5.00

Looking up CC(=O)O[C@H]1C(=O)[C@@]2(C)[C@H]([C@H](OC(=O)c3ccccc3)[C@]3(O)C[C@H](OC(=O)[C@H](O)[C@@H](NC(=O)c4ccccc4)c4ccccc4)C(C)=C1C3(C)C)[C@]1(OC(C)=O)CO[C@@H]1C[C@@H]2O , I see its pIC50 listed as < 5.52

The recorded pIC50 for entry CC(C)n1c(=O)n(C)c2cnc3cc(F)c(-c4ccc(OCCCN5CCCCC5)nc4)cc3c21 equals < 5.00

// pIC50 value for C=CC(=O)N1CCN(c2nc(=O)n(-c3c(C)ccnc3C(C)C)c3nc(-c4c(O)cccc4F)c(F)cc23)C(C)C1 (stereo not drawn) : < 5.00

Reported pIC50 for COc1ccc([C@@H](O)c2cc(-c3ncnc4cc(N5CCOCC5)ccc34)c(F)cc2Cl)nn1 was < 5.00
